Assay: Example 7: single and multiple dose pharmacokinetics and food effect in healthy men
Format: in vivo, human
Conditions: male, human, plasma, oral; across the 20 to 180 mg QD dose range; read-out: mean plasma T1/2 (converted)
metric: half-life

Which half-life is reported for this compound? CONC(=O)Nc1ccc(-c2sc3c(c2CN(C)C)c(=O)n(-c2ccc(OC)nn2)c(=O)n3Cc2c(F)cccc2F)cc1 [Compound 1]
36 to 65 h

----------
Experiment: Example 7: single and multiple dose pharmacokinetics and food effect in healthy men
Assay type: in vivo, human
Conditions: male, human, plasma, oral; repeat dosing, 180 mg QD; read-out: mean plasma T1/2 (converted)
metric: half-life (min)
Just the number please, in min, no unit attached.

Bench note: what half-life did CONC(=O)Nc1ccc(-c2sc3c(c2CN(C)C)c(=O)n(-c2ccc(OC)nn2)c(=O)n3Cc2c(F)cccc2F)cc1 show?
2150
